The values you see were collected from ChEMBL document CHEMBL1275533.

Test system: Klebsiella aerogenes
Assay: Antibacterial activity against gentamicin-resistant Enterobacter aerogenes clinical isolate assessed as susceptible isolates after 18 hrs by agar dilution method
Assay type: functional
Result Type: Activity (%)

>>> number("NCC[C@H](O)C(=O)N[C@@H]1C[C@H](N)[C@@H](O[C@H]2O[C@H](CN)[C@@H](O)[C@H](O)[C@H]2O)[C@H](O)[C@H]1O[C@H]1O[C@H](CO)[C@@H](O)[C@H](N)[C@H]1O [AMIKACIN]")
55
>>> number("CCN[C@@H]1C[C@H](N)[C@@H](O[C@@H]2OC(C(C)N)=CC[C@@H]2N)[C@H](O)[C@H]1O[C@H]1OC[C@](C)(O)[C@H](NC)[C@H]1O (some centres undefined) [VERTILMICIN]")
30
>>> number("CCN[C@@H]1C[C@H](N)[C@@H](O[C@H]2OC(CN)=CC[C@H]2N)[C@H](O)[C@H]1O[C@H]1OC[C@](C)(O)[C@H](NC)[C@H]1O [NETILMICIN]")
30
>>> number("CN[C@@H]1[C@@H](O)[C@@H](O[C@@H]2[C@@H](O)[C@H](O[C@@H]3OC(C(C)N)=CC[C@@H]3N)[C@@H](N)C[C@H]2N)OC[C@]1(C)O (some centres undefined) [VERDAMICIN]")
0

* * *

Recorded MIC50 by entry
Tested on: Serratia marcescens
Test: Antibacterial activity against non-gentamicin-resistant Serratia marcescens clinical isolate after 18 hrs by agar dilution method
Format: functional
Result Type: MIC50 (µg/mL)

>>> number("CCN[C@@H]1C[C@H](N)[C@@H](O[C@@H]2OC(C(C)N)=CC[C@@H]2N)[C@H](O)[C@H]1O[C@H]1OC[C@](C)(O)[C@H](NC)[C@H]1O (some centres undefined)")
0.25
>>> number("CCN[C@@H]1C[C@H](N)[C@@H](O[C@H]2OC(CN)=CC[C@H]2N)[C@H](O)[C@H]1O[C@H]1OC[C@](C)(O)[C@H](NC)[C@H]1O")
1
>>> number("CN[C@@H]1[C@@H](O)[C@@H](O[C@@H]2[C@@H](O)[C@H](O[C@@H]3OC(C(C)N)=CC[C@@H]3N)[C@@H](N)C[C@H]2N)OC[C@]1(C)O (some centres undefined)")
0.25
>>> number("NCC[C@H](O)C(=O)N[C@@H]1C[C@H](N)[C@@H](O[C@H]2O[C@H](CN)[C@@H](O)[C@H](O)[C@H]2O)[C@H](O)[C@H]1O[C@H]1O[C@H](CO)[C@@H](O)[C@H](N)[C@H]1O")
1

* * *

Each record here notes measured Activity.
Test system: Pseudomonas sp.
Experiment: Antibacterial activity against non-gentamicin-resistant Pseudomonas spp. clinical isolate assessed as susceptible isolates after 18 hrs by agar dilution method
Format: functional
Result Type: Activity (%)

>>> number("CCN[C@@H]1C[C@H](N)[C@@H](O[C@@H]2OC(C(C)N)=CC[C@@H]2N)[C@H](O)[C@H]1O[C@H]1OC[C@](C)(O)[C@H](NC)[C@H]1O (some centres undefined) [VERTILMICIN]")
72.7
>>> number("NCC[C@H](O)C(=O)N[C@@H]1C[C@H](N)[C@@H](O[C@H]2O[C@H](CN)[C@@H](O)[C@H](O)[C@H]2O)[C@H](O)[C@H]1O[C@H]1O[C@H](CO)[C@@H](O)[C@H](N)[C@H]1O [AMIKACIN]")
90.9
>>> number("CCN[C@@H]1C[C@H](N)[C@@H](O[C@H]2OC(CN)=CC[C@H]2N)[C@H](O)[C@H]1O[C@H]1OC[C@](C)(O)[C@H](NC)[C@H]1O [NETILMICIN]")
72.7
>>> number("CN[C@@H]1[C@@H](O)[C@@H](O[C@@H]2[C@@H](O)[C@H](O[C@@H]3OC(C(C)N)=CC[C@@H]3N)[C@@H](N)C[C@H]2N)OC[C@]1(C)O (some centres undefined) [VERDAMICIN]")
100

* * *

Tested on: Pseudomonas sp.
Test: Antibacterial activity against non-gentamicin-resistant Pseudomonas spp. clinical isolate after 18 hrs by agar dilution method
Assay type: functional
Result Type: MIC50 (µg/mL)

>>> number("CN[C@@H]1[C@@H](O)[C@@H](O[C@@H]2[C@@H](O)[C@H](O[C@@H]3OC(C(C)N)=CC[C@@H]3N)[C@@H](N)C[C@H]2N)OC[C@]1(C)O (some centres undefined) [VERDAMICIN]")
2
>>> number("CCN[C@@H]1C[C@H](N)[C@@H](O[C@H]2OC(CN)=CC[C@H]2N)[C@H](O)[C@H]1O[C@H]1OC[C@](C)(O)[C@H](NC)[C@H]1O [NETILMICIN]")
8
>>> number("CCN[C@@H]1C[C@H](N)[C@@H](O[C@@H]2OC(C(C)N)=CC[C@@H]2N)[C@H](O)[C@H]1O[C@H]1OC[C@](C)(O)[C@H](NC)[C@H]1O (some centres undefined) [VERTILMICIN]")
8
>>> number("NCC[C@H](O)C(=O)N[C@@H]1C[C@H](N)[C@@H](O[C@H]2O[C@H](CN)[C@@H](O)[C@H](O)[C@H]2O)[C@H](O)[C@H]1O[C@H]1O[C@H](CO)[C@@H](O)[C@H](N)[C@H]1O [AMIKACIN]")
4

* * *

Entries and their MIC50 values follow.
Tested on: Haemophilus influenzae
Experiment: Antibacterial activity against non-gentamicin-resistant Haemophilus influenzae clinical isolate after 18 hrs by agar dilution method
Format: functional
Result Type: MIC50 (µg/mL)

>>> number("CN[C@@H]1[C@@H](O)[C@@H](O[C@@H]2[C@@H](O)[C@H](O[C@@H]3OC(C(C)N)=CC[C@@H]3N)[C@@H](N)C[C@H]2N)OC[C@]1(C)O (some centres undefined)")
1
>>> number("CCN[C@@H]1C[C@H](N)[C@@H](O[C@@H]2OC(C(C)N)=CC[C@@H]2N)[C@H](O)[C@H]1O[C@H]1OC[C@](C)(O)[C@H](NC)[C@H]1O (some centres undefined)")
1
>>> number("NCC[C@H](O)C(=O)N[C@@H]1C[C@H](N)[C@@H](O[C@H]2O[C@H](CN)[C@@H](O)[C@H](O)[C@H]2O)[C@H](O)[C@H]1O[C@H]1O[C@H](CO)[C@@H](O)[C@H](N)[C@H]1O")
8
>>> number("CCN[C@@H]1C[C@H](N)[C@@H](O[C@H]2OC(CN)=CC[C@H]2N)[C@H](O)[C@H]1O[C@H]1OC[C@](C)(O)[C@H](NC)[C@H]1O")
1

* * *

Parameter: MIC90. Scope: all listed entries.
Tested on: Escherichia coli
Assay: Antibacterial activity against non-gentamicin-resistant Escherichia coli clinical isolate after 18 hrs by agar dilution method
Format: functional
Result Type: MIC90 (µg/mL)

>>> number("NCC[C@H](O)C(=O)N[C@@H]1C[C@H](N)[C@@H](O[C@H]2O[C@H](CN)[C@@H](O)[C@H](O)[C@H]2O)[C@H](O)[C@H]1O[C@H]1O[C@H](CO)[C@@H](O)[C@H](N)[C@H]1O [AMIKACIN]")
2
>>> number("CCN[C@@H]1C[C@H](N)[C@@H](O[C@H]2OC(CN)=CC[C@H]2N)[C@H](O)[C@H]1O[C@H]1OC[C@](C)(O)[C@H](NC)[C@H]1O [NETILMICIN]")
0.5
>>> number("CN[C@@H]1[C@@H](O)[C@@H](O[C@@H]2[C@@H](O)[C@H](O[C@@H]3OC(C(C)N)=CC[C@@H]3N)[C@@H](N)C[C@H]2N)OC[C@]1(C)O (some centres undefined) [VERDAMICIN]")
0.5
>>> number("CCN[C@@H]1C[C@H](N)[C@@H](O[C@@H]2OC(C(C)N)=CC[C@@H]2N)[C@H](O)[C@H]1O[C@H]1OC[C@](C)(O)[C@H](NC)[C@H]1O (some centres undefined) [VERTILMICIN]")
0.5

* * *

Below, each entry is listed alongside its reported Activity.
System: Morganella morganii
Assay: Antibacterial activity against non-gentamicin-resistant Morganella morganii clinical isolate assessed as susceptible isolates after 18 hrs by agar dilution method
Type: functional
Result Type: Activity (%)

>>> number("CCN[C@@H]1C[C@H](N)[C@@H](O[C@H]2OC(CN)=CC[C@H]2N)[C@H](O)[C@H]1O[C@H]1OC[C@](C)(O)[C@H](NC)[C@H]1O [NETILMICIN]")
100
>>> number("CN[C@@H]1[C@@H](O)[C@@H](O[C@@H]2[C@@H](O)[C@H](O[C@@H]3OC(C(C)N)=CC[C@@H]3N)[C@@H](N)C[C@H]2N)OC[C@]1(C)O (some centres undefined) [VERDAMICIN]")
100
>>> number("CCN[C@@H]1C[C@H](N)[C@@H](O[C@@H]2OC(C(C)N)=CC[C@@H]2N)[C@H](O)[C@H]1O[C@H]1OC[C@](C)(O)[C@H](NC)[C@H]1O (some centres undefined) [VERTILMICIN]")
100
>>> number("NCC[C@H](O)C(=O)N[C@@H]1C[C@H](N)[C@@H](O[C@H]2O[C@H](CN)[C@@H](O)[C@H](O)[C@H]2O)[C@H](O)[C@H]1O[C@H]1O[C@H](CO)[C@@H](O)[C@H](N)[C@H]1O [AMIKACIN]")
96
